Value source: the supplement of paper PMC10883282

For each entry below, report its relative viability value.
test system: VA-ES-BJ; experiment: relative viability vs DMSO control (72 h) (fraction); higher = more viable cells; conditions: 0.00017 µM
One number for each entry.

Example cases with answers are listed next.
[[record]]
compound = "COC(=O)c1ccc2c(c1)NC(=O)/C2=C(\\Nc1ccc(N(C)C(=O)CN2CCN(C)CC2)cc1)c1ccccc1"
number = 1.04

[[record]]
compound = "CS(=O)(=O)CCNCc1ccc(-c2ccc3ncnc(Nc4ccc(OCc5cccc(F)c5)c(Cl)c4)c3c2)o1"
number = 1.02

[[record]]
compound = "Cn1cnc2c(F)c(Nc3ccc(Br)cc3Cl)c(C(=O)NOCCO)cc21"
number = 0.996

[[record]]
compound = "O=C(/C=C\\n1cnc(-c2cc(C(F)(F)F)cc(C(F)(F)F)c2)n1)NNc1cnccn1 [Selinexor]"
number = 1.1

[[record]]
compound = "COc1cc(N2CCC(N3CCN(C)CC3)CC2)ccc1Nc1ncc(Cl)c(Nc2ccccc2P(C)(C)=O)n1"
number = 0.946


IN: Given the entry CO[C@H]1C[C@@H]2CC[C@@H](C)[C@@](O)(O2)C(=O)C(=O)N2CCCC[C@H]2C(=O)O[C@H]([C@H](C)C[C@@H]2CC[C@@H](OC(=O)C(C)(CO)CO)[C@H](OC)C2)CC(=O)[C@H](C)/C=C(\C)[C@@H](O)[C@@H](OC)C(=O)[C@H](C)C[C@H](C)/C=C/C=C/C=C/1C , what relative viability was observed with VA-ES-BJ?
OUT: 0.864

###

tested on: SK-LMS-1; assay: relative viability vs DMSO control (72 h) (fraction); higher = more viable cells; settings: 0.04115 µM
Mark Y only for relative viability values smaller than 0.8; exact matches and larger values are N.

Here's what some known entries look like.
[[record]]
compound = "O=C(/C=C\\n1cnc(-c2cc(C(F)(F)F)cc(C(F)(F)F)c2)n1)NNc1cnccn1 [Selinexor]"
assigned_class = "Y"

[[record]]
compound = "CNC(=O)c1c(C)oc2cc(Oc3ncnc4cc(OC)c(OC)cc34)ccc12 [Fruquintinib]"
assigned_class = "N"

[[record]]
compound = "C[C@@H]1CN(C(=O)c2ccc(NC(=O)c3cc(O[C@H](C)c4c(Cl)ccc(F)c4Cl)c(N)nn3)cc2)C[C@H](C)N1 [Ensartinib]"
assigned_class = "N"

[[record]]
compound = "Cc1[nH]c(/C=C2\\C(=O)Nc3ccccc32)c(C)c1CCC(=O)O [Orantinib]"
assigned_class = "N"

[[record]]
compound = "Cc1c2oc3c(C)ccc(C(=O)N[C@@H]4C(=O)N[C@H](C(C)C)C(=O)N5CCC[C@H]5C(=O)N(C)CC(=O)N(C)[C@@H](C(C)C)C(=O)O[C@@H]4C)c3nc-2c(C(=O)N[C@@H]2C(=O)N[C@H](C(C)C)C(=O)N3CCC[C@H]3C(=O)N(C)CC(=O)N(C)[C@@H](C(C)C)C(=O)O[C@@H]2C)c(N)c1=O [Dactinomycin]"
assigned_class = "Y"


IN: Lab log: compare recorded relative viability with 0.8; is it strictly lower for Cc1cc(F)c(C(=O)Nc2cccc(-c3nncn3C(C)C)n2)cc1-n1cnc(C2CC2)c1 [Selonsertib] ?
OUT: N

IN: A record lists CCOc1cc2ncc(C#N)c(Nc3ccc(OCc4ccccn4)c(Cl)c3)c2cc1NC(=O)/C=C/CN(C)C [Neratinib] . Is its relative viability below 0.8?
OUT: N
